Test system: AMN human patient-derived primary fibroblasts
Assay: Hexacosanoic acid (VLCFA) level in AMN patient-derived fibroblasts, LC-MS
Format: cell-based
Conditions: AMN patient-derived fibroblasts, concentrations from 0.1 to 5 μM; FIG. 14
Experimental: In order to compare the efficacy of PXL770 and metformin to lower very long chain fatty acids (VLCFA) in vitro, the study focuses on the level assessment of the hexacosanoic acid, which is the most prevalent VLCFA, in healthy control cells and in AMN human patient-derived primary fibroblasts. The cell lines were obtained from Coriell Cell Repositories. Fibroblasts were cultured in DMEM with 15% FBS. The cultures were split in 1:5 ratio. […] VLCFA content was then measured as follows. […]

- compound: "O=c1[nH]c2sc(Cl)c(-c3ccc4c(c3O)CCCC4)c2c([O-])c1-c1ccccc1.[K+] [PXL770]"
  VLCFA levels: "comparable decrease"
- compound: "O=c1[nH]c2sc(Cl)c(-c3ccc4c(c3O)CCC4)c2c(O)c1-c1ccccc1 [PXL702]"
  VLCFA levels: "comparable decrease"
- compound: "O=c1[nH]c2sc(Cl)c(-c3ccc4c(c3O)CCC4)c2c(O)c1-c1cccc(F)c1 [PXL695]"
  VLCFA levels: "comparable decrease"
